# experimental_details: Multiple ascending dose study: plasma pharmacokinetics
# Type: in vivo
# setup_conditions: human, po, 10 mg, Day 14, 10 mg QD oral, read-out: AUC(0-24 h) Median
# Experimental: Four sequential cohorts of healthy participants (≥50 years and ≤85 years old) were treated with multiple ascending doses of Compound A up to the maximum tolerated dose (MTD). A total of 6 participants per cohort were randomized to Compound A. Proposed doses of Compound A were: Participants received Compound A capsules, orally once daily (QD) on Days 1 to 14 after an overnight fast of at least 10 hours. Compound A was administered orally with 240 milliliter (mL) (8 fluid ounces) of water. […]

[
  {
    "molecule": "COc1ncc(C)c(-c2ccc3c(c2)[nH]c(=O)c2cnn([C@H]4CCOC4)c23)c1C [Compound A]",
    "AUC(0-t) / ng·h/mL": 1980
  }
]

###

# experimental_details: Single dose clinical study: plasma Compound A pharmacokinetics
# Format: in vivo, human
# setup_conditions: human, plasma, po, 200 mg, plasma, healthy adults (Parts A,B), single oral 200 mg, fasted; read-out: AUC(0-24 h) GM

[
  {
    "line_notation": "COc1ncc(C)c(-c2ccc3c(c2)[nH]c(=O)c2cnn([C@H]4CCOC4)c23)c1C",
    "AUC(0-t)": "7800 ng·h/mL"
  }
]

###

# experimental_details: Single dose clinical study: plasma Compound A pharmacokinetics
# Assay type: in vivo, human
# setup_conditions: human, plasma, po, 100 mg, plasma, Part B 100 mg cohort, single oral 100 mg, Fasted; read-out: Cmax GM (%CV)
property_measured: Cmax

[
  {
    "line_notation": "COc1ncc(C)c(-c2ccc3c(c2)[nH]c(=O)c2cnn([C@H]4CCOC4)c23)c1C",
    "property_measured": "Cmax",
    "assay_value": "371 ng/mL"
  }
]

###

# experimental_details: Single dose clinical study: plasma Compound A pharmacokinetics
# Type: in vivo, human
# setup_conditions: human, plasma, po, 50 mg, plasma, healthy adults (Parts A,B), single oral 50 mg, fasted; read-out: AUC(0-t) GM
property_measured: AUC(0-t) (ng·h/mL)

[
  {
    "line_notation": "COc1ncc(C)c(-c2ccc3c(c2)[nH]c(=O)c2cnn([C@H]4CCOC4)c23)c1C",
    "assay_value": 7720
  }
]

###

# experimental_details: Single dose clinical study: plasma Compound A pharmacokinetics
# Format: in vivo, human
# setup_conditions: human, plasma, oral, 100 mg, Japanese, 100 mg, with weight as covariate; read-out: AUC(O-inf) Geometric LS Means Test
property_measured: AUC (ng·h/mL)

[
  {
    "compound": "COc1ncc(C)c(-c2ccc3c(c2)[nH]c(=O)c2cnn([C@H]4CCOC4)c23)c1C [Compound A]",
    "assay_value": 14200
  }
]

###

# experimental_details: Multiple ascending dose study: plasma pharmacokinetics
# Assay type: in vivo
# setup_conditions: human, po, 25 mg, Day 1, 25 mg QD oral, read-out: AUC(0-24 h) Mean (SD)
# Procedure: Four sequential cohorts of healthy participants (≥50 years and ≤85 years old) were treated with multiple ascending doses of Compound A up to the maximum tolerated dose (MTD). A total of 6 participants per cohort were randomized to Compound A. Proposed doses of Compound A were: Participants received Compound A capsules, orally once daily (QD) on Days 1 to 14 after an overnight fast of at least 10 hours. Compound A was administered orally with 240 milliliter (mL) (8 fluid ounces) of water. […]

[
  {
    "line_notation": "COc1ncc(C)c(-c2ccc3c(c2)[nH]c(=O)c2cnn([C@H]4CCOC4)c23)c1C",
    "AUC(0-t) [ng·h/mL]": 1670
  }
]

###

# experimental_details: Single dose clinical study: plasma Compound A pharmacokinetics
# Assay type: in vivo, human
# setup_conditions: human, plasma, po, 1200 mg, plasma, healthy adults (Parts A,B), single oral 1200 mg, fasted; read-out: t1/2 Mean (converted)
property_measured: half-life (h)

[
  {
    "line_notation": "COc1ncc(C)c(-c2ccc3c(c2)[nH]c(=O)c2cnn([C@H]4CCOC4)c23)c1C",
    "value_unit": "h",
    "assay_value": 31.9
  }
]

###

# experimental_details: Multiple ascending dose study: plasma pharmacokinetics
# Format: in vivo
# setup_conditions: human, po, 25 mg, Day 14, 25 mg QD oral, read-out: Cmax Median
property_measured: Cmax (ng/mL)

[
  {
    "line_notation": "COc1ncc(C)c(-c2ccc3c(c2)[nH]c(=O)c2cnn([C@H]4CCOC4)c23)c1C",
    "value_unit": "ng/mL",
    "assay_value": 318
  }
]

###

# experimental_details: Single dose clinical study: plasma Compound A pharmacokinetics
# Type: in vivo, human
# setup_conditions: human, plasma, po, 400 mg, plasma, Japanese Subjects (Part D), single oral 400 mg; read-out: Cmax GM (% CV)
# Method: This was a single center, single dose, randomized, double blind, placebo controlled study in healthy subjects. It consisted of 4 parts: Parts A, B, C, and D. Each of the four study parts had 2 phases: Prerandomization Phase and Randomization Phase. The Prerandomization Phase lasted up to 30 days and consisted of a Screening Period and a Baseline Period, during which each subject's study eligibility was determined and baseline assessments were performed. […]

[
  {
    "line_notation": "COc1ncc(C)c(-c2ccc3c(c2)[nH]c(=O)c2cnn([C@H]4CCOC4)c23)c1C",
    "value_unit": "ng/mL",
    "Cmax": 1180
  }
]

###

# experimental_details: Multiple ascending dose study: plasma pharmacokinetics
# Assay type: in vivo
# setup_conditions: human, po, 50 mg, Day 14, 50 mg QD oral, read-out: AUC(0-inf) GM (% CV)

[
  {
    "compound": "COc1ncc(C)c(-c2ccc3c(c2)[nH]c(=O)c2cnn([C@H]4CCOC4)c23)c1C [Compound A]",
    "AUC(0-inf)": "38600 ng·h/mL"
  }
]

###

# experimental_details: Multiple ascending dose study: plasma pharmacokinetics
# Assay type: in vivo
# setup_conditions: human, po, 400 mg, Day 1, 400 mg QD oral, Japanese, read-out: Cmax Mean (SD)
# Method: Four sequential cohorts of healthy participants (≥50 years and ≤85 years old) were treated with multiple ascending doses of Compound A up to the maximum tolerated dose (MTD). A total of 6 participants per cohort were randomized to Compound A. Proposed doses of Compound A were: Participants received Compound A capsules, orally once daily (QD) on Days 1 to 14 after an overnight fast of at least 10 hours. Compound A was administered orally with 240 milliliter (mL) (8 fluid ounces) of water. […]

[
  {
    "line_notation": "COc1ncc(C)c(-c2ccc3c(c2)[nH]c(=O)c2cnn([C@H]4CCOC4)c23)c1C",
    "Cmax": "1520 ng/mL"
  }
]

###

# experimental_details: Single dose clinical study: plasma Compound A pharmacokinetics
# Type: in vivo, human
# setup_conditions: human, plasma, po, 400 mg, plasma, healthy adults (Parts A,B), single oral 400 mg, fasted; read-out: AUC(0-inf) GM

[
  {
    "compound": "COc1ncc(C)c(-c2ccc3c(c2)[nH]c(=O)c2cnn([C@H]4CCOC4)c23)c1C [Compound A]",
    "AUC(0-inf) [ng·h/mL]": 36300
  }
]

###

# experimental_details: Single dose clinical study: plasma Compound A pharmacokinetics
# Type: in vivo, human
# setup_conditions: human, plasma, oral, 100 mg, Japanese, 100 mg, without weight as covariate; read-out: Cmax Geometric LS Means Test

[
  {
    "line_notation": "COc1ncc(C)c(-c2ccc3c(c2)[nH]c(=O)c2cnn([C@H]4CCOC4)c23)c1C",
    "Cmax": "492 ng/mL"
  }
]

###

# experimental_details: Multiple ascending dose study: plasma pharmacokinetics
# Assay type: in vivo
# setup_conditions: human, po, 5 mg, Day 1, 5 mg QD oral, read-out: AUC(0-24 h) Mean (SD)

[
  {
    "line_notation": "COc1ncc(C)c(-c2ccc3c(c2)[nH]c(=O)c2cnn([C@H]4CCOC4)c23)c1C",
    "AUC(0-t) / ng·h/mL": 352
  }
]

###

# experimental_details: Single dose clinical study: plasma Compound A pharmacokinetics
# Format: in vivo, human
# setup_conditions: human, plasma, po, 10 mg, plasma, healthy adults (Parts A,B), single oral 10 mg, fasted; read-out: Vz/F GM
property_measured: Vd/F (L)

[
  {
    "line_notation": "COc1ncc(C)c(-c2ccc3c(c2)[nH]c(=O)c2cnn([C@H]4CCOC4)c23)c1C",
    "value_unit": "L",
    "assay_value": 255
  }
]

###

# experimental_details: Multiple ascending dose study: plasma pharmacokinetics
# Type: in vivo
# setup_conditions: human, po, 5 mg, Day 14, 5 mg QD oral, read-out: Cmax Median
# Protocol: Four sequential cohorts of healthy participants (≥50 years and ≤85 years old) were treated with multiple ascending doses of Compound A up to the maximum tolerated dose (MTD). A total of 6 participants per cohort were randomized to Compound A. Proposed doses of Compound A were: Participants received Compound A capsules, orally once daily (QD) on Days 1 to 14 after an overnight fast of at least 10 hours. Compound A was administered orally with 240 milliliter (mL) (8 fluid ounces) of water. […]

[
  {
    "compound": "COc1ncc(C)c(-c2ccc3c(c2)[nH]c(=O)c2cnn([C@H]4CCOC4)c23)c1C [Compound A]",
    "Cmax [ng/mL]": 49.4
  }
]
